- System: TK-10 renal
- assay-comment: NCI-60 one-dose screen, 48 h (100 = growth as untreated, 0 = no growth, -100 = all killed)
- protocol-conditions: 10 µM unless noted
Compounds without any hit were thinned out: in the full panel of roughly 83,000, 20% have a hit.
Parameter growth: see the listing below.
Value expressed in %; do not type the unit.

Completed entries (count: 5):
>  <compound>
CC1=C(C/C=C(\C)CCC[C@H](C)CCC[C@H](C)CCCC(C)C)C(=O)c2ccccc2C1=O

>  <growth [%]>
95.6

$$$$
>  <compound>
C[C@H]1C(=O)C23CCC1C[C@@]21O[C@@H]2C(C)(C)C=CC(=O)C23COC1=O

>  <growth [%]>
98.9

$$$$
>  <compound>
Brc1ccc(SCN(CSc2ccc(Br)cc2)Cc2ccccc2)cc1

>  <growth [%]>
113

$$$$
>  <compound>
Cc1nc(-c2ccccc2)cc2c(O)c(C(=O)N/N=C/Cc3ccccc3)[nH]c(=O)c12

>  <growth [%]>
109

$$$$
>  <compound>
CCN1CCN(C(=S)SCC(=O)Nc2nc3ccc(OC)cc3s2)CC1

>  <growth [%]>
111

$$$$

What does the record list as growth for "NC(=S)N/N=C1\c2ccccc2-c2c(F)c(F)c(F)c(F)c21" ? 116

Same question, CN1CCc2cccc3c2C1Cc1ccc(O)c(O)c1-3 (stereo not drawn) this time 129

Same question, CCCCCn1c(=N)n(CC(O)COc2cccc(C)c2)c2ccccc21 (stereo not drawn) this time 21.4
